In this section, each of the molecules is paired with its reported IC50.
test-system: EGFR (L858R T790M C797S) (Homo sapiens, UniProt P00533, C797S/L858R/T790M)
Construct: purchased SignalChem E10-122VG
Sequence (P00533 25-1210 T790M/C797S/L858R): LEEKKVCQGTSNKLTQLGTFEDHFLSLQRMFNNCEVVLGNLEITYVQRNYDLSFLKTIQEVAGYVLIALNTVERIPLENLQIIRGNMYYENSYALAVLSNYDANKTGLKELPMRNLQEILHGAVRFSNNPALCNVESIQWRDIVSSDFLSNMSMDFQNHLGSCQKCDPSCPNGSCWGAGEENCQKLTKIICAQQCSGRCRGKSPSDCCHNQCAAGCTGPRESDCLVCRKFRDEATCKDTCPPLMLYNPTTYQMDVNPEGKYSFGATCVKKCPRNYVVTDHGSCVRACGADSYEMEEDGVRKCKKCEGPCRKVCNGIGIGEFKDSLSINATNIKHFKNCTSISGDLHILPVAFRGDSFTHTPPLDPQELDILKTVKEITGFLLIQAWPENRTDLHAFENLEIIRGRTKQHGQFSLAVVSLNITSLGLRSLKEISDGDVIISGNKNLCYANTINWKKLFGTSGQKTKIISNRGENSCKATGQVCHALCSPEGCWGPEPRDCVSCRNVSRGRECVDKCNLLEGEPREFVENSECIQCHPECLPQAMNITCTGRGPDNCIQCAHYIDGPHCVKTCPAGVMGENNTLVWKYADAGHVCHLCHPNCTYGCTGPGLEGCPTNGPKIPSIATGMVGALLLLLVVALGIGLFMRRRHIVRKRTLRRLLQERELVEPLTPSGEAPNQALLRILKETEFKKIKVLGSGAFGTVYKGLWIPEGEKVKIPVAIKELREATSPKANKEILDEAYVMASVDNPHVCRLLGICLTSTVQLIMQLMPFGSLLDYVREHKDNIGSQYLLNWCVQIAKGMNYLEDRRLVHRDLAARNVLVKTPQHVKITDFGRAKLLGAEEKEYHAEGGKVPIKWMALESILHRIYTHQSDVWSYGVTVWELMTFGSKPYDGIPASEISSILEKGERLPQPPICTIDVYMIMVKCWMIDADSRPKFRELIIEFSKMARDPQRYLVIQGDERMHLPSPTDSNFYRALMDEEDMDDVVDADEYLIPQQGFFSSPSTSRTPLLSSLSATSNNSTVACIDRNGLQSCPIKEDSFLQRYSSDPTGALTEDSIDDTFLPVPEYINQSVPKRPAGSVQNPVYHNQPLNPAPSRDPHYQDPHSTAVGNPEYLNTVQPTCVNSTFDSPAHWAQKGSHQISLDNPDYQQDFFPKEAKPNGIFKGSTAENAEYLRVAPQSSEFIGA
run-description: Biochemical EGFR inhibition assay (Caliper mobility shift), EGFR LRTMCS mutant
measurement-parameters: LRTMCS (PH) IC50 (nM) @ 1 mM ATP (Num)

Example entries begin here.
Cc1noc(C)c1CCOc1ccc(C(C)C)c2cc(Nc3ccnc(N4CC[C@@H](OCCO)[C@@H](F)C4)n3)ncc12 [Example 43]: 15 to 20 nM
CC(=O)N1CC(COc2ccc(C(C)C)c3cc(Nc4ccnc(N5CC[C@@](C)(O)[C@@H](F)C5)n4)ncc23)C1 [Example 11]: 20 to 30 nM
CC(C)c1ccc(OCCn2ccnn2)c2cnc(Nc3ccnc(N4CC[C@](C)(O)[C@H](F)C4)n3)cc12 [Example 32]: < 15 nM

Now for a further molecule.
Hello, I am looking for reported IC50 with EGFR (L858R T790M C797S) (Homo sapiens, UniProt P00533, C797S/L858R/T790M) for CC(C)c1cnc(C(=O)NCC(F)F)c2cnc(Nc3ccnc(N4CC[C@@H](O)[C@@](C)(F)C4)n3)cc12 [Example 67] . Could you help?
< 15 nM

---

test-system: EGFR (L858R T790M C797S) (Homo sapiens, UniProt P00533, C797S/L858R/T790M)
Construct: purchased SignalChem E10-122VG
run-description: Biochemical EGFR inhibition assay (Caliper mobility shift), EGFR LRTMCS mutant
measurement-parameters: read-out: LRTMCS (PH) IC50 (nM) @ 1 mM ATP (Num)
assay-metric: IC50

Example entries begin here.
CC(C)c1ccc(OC[C@H]2COC(=O)N2C)c2cnc(Nc3ccnc(N4CC[C@@](C)(O)[C@@H](F)C4)n3)cc12 (single isomer, unassigned): 15 to 20 nM
CC(C)c1cnc(C(=O)N[C@H]2CN(C)C[C@H]2F)c2cnc(Nc3ccnc(N4CC[C@@H](O)[C@@](C)(F)C4)n3)cc12 (single isomer, unassigned): < 15 nM
CC(C)c1ccc(OCCn2cnnc2)c2cnc(Nc3ccnc(N4CC[C@H]5COC[C@H]54)n3)cc12 (single isomer, unassigned): 20 to 30 nM

Now for a further molecule.
What value of IC50 has been reported for the following molecule? CC(C)c1ccc(OC[C@@H]2CC(=O)N(C)C2)c2cnc(Nc3ccnc(N4CC[C@@H](O)[C@@](C)(F)C4)n3)cc12 (single isomer, unassigned)
< 15 nM

---

In this section, each of the compounds is paired with its reported IC50.
test-system: EGFR (L858R T790M C797S) (Homo sapiens, UniProt P00533, C797S/L858R/T790M)
Construct: purchased SignalChem E10-122VG
run-description: Biochemical EGFR inhibition assay (Caliper mobility shift), EGFR LRTMCS mutant
measurement-parameters: LRTMCS (PH) IC50 (nM) @ 1 mM ATP (Num)
Procedure: Reactions proceeded until between 10% to 20% total peptides were phosphorylated at room temperature (25° C.) and were terminated with 35 mM 2,2′,2″,2′″-(ethane-1,2-diyldinitrilo)tetraacetic acid (EDTA). Product was detected using the Caliper mobility shift detection method where the phosphorylated peptide (product) and substrate were electrophoretically separated and measured. Percent activity was plotted against log concentration of compound and points to generate an apparent IC50.

CC(C)c1ccc(OC[C@@H]2CCC(=O)N2C)c2cnc(Nc3ccnc(N4CC[C@](C)(O)[C@H](F)C4)n3)cc12: 15 to 20 nM
[2H]C([2H])([2H])O[C@H]1CCN(c2nccc(Nc3cc4c(C(C)C)ccc(OC[C@H]5CCC(=O)N5C)c4cn3)n2)C[C@H]1F: 15 to 20 nM
CC(C)c1ccc(OC[C@H]2COC(=O)N2C)c2cnc(Nc3ccnc(N4CC[C@@](C)(O)[C@@H](F)C4)n3)cc12 (single isomer, unassigned): 15 to 20 nM

Hello, I am looking for reported IC50 with EGFR (L858R T790M C797S) (Homo sapiens, UniProt P00533, C797S/L858R/T790M) for CC(C)c1ccc(OCCc2ccnn2C)c2cnc(Nc3ccnc(N4CC[C@](C)(O)[C@H](F)C4)n3)cc12 . Could you help?
15 to 20 nM

Hello, I am looking for reported IC50 with EGFR (L858R T790M C797S) (Homo sapiens, UniProt P00533, C797S/L858R/T790M) for CC(C)c1ccc(OCCn2cnnc2)c2cnc(Nc3ccnc(N4CC[C@H]5COC[C@H]54)n3)cc12 (single isomer, unassigned) . Could you help?
20 to 30 nM

Hello, I am looking for reported IC50 with EGFR (L858R T790M C797S) (Homo sapiens, UniProt P00533, C797S/L858R/T790M) for CC(C)c1ccc(OCC2CCc3cncn32)c2cnc(Nc3ccnc(N4CCC(C)(O)CC4)n3)cc12 (stereo not drawn) . Could you help?
< 15 nM

---

In this section, each of the compounds is paired with its reported IC50.
test-system: EGFR (L858R T790M C797S) (Homo sapiens, UniProt P00533, C797S/L858R/T790M)
Construct: purchased SignalChem E10-122VG
run-description: Biochemical EGFR inhibition assay (Caliper mobility shift), EGFR LRTMCS mutant
measurement-parameters: LRTMCS (PH) IC50 (nM) @ 1 mM ATP (Num)

Example entries begin here.
CC(C)c1cnc(C(=O)NCCF)c2cnc(Nc3ccnc(N4CC[C@@H](O)[C@@](C)(F)C4)n3)cc12: < 15 nM
CC(C)c1cnc(C(=O)NC2COC2)c2cnc(Nc3ccnc(N4CC[C@@H](O)[C@@](C)(F)C4)n3)cc12: 15 to 20 nM
CC(C)c1ccc(OCCn2ccnc2)c2cnc(Nc3ccnc(N4CCC(C)(O)CC4)n3)cc12: < 15 nM
CC(C)c1ccc(OC[C@H]2CCC(=O)N2C)c2cnc(Nc3ccnc(N4CCC(C)(O)CC4)n3)cc12 (single isomer, unassigned): < 15 nM
CO[C@@H]1CCN(c2nccc(Nc3cc4c(C(C)C)ccc(OCC5CN(C(C)=O)C5)c4cn3)n2)C[C@@H]1O (single isomer, unassigned): < 15 nM

What value of IC50 has been reported for the following compound? CC(C)c1cnc(C(=O)N[C@H]2C[C@@H](C#N)C2)c2cnc(Nc3ccnc(N4CC[C@@H](O)[C@@](C)(F)C4)n3)cc12
< 15 nM

What value of IC50 has been reported for the following compound? CC(C)c1cnc(C(=O)N[C@@H]2CN(C)C[C@H]2F)c2cnc(Nc3ccnc(N4CC[C@@H](O)[C@@](C)(F)C4)n3)cc12 (single isomer, unassigned) [Example 89]
15 to 20 nM

What value of IC50 has been reported for the following compound? CC(C)NC(=O)c1ncc(C(C)C)c2cc(Nc3ccnc(N4CC[C@@H](O)[C@@](C)(F)C4)n3)ncc12
20 to 30 nM

What value of IC50 has been reported for the following compound? CC(C)c1ccc(OCc2cn(C)nn2)c2cnc(Nc3ccnc(N4CC[C@@H](O)[C@@](C)(F)C4)n3)cc12
< 15 nM

What value of IC50 has been reported for the following compound? CCO[C@H]1C[C@H](NC(=O)c2ncc(C(C)C)c3cc(Nc4ccnc(N5CC[C@@H](O)[C@@](C)(F)C5)n4)ncc23)C1
< 15 nM

What value of IC50 has been reported for the following compound? CC(C)c1ccc(OCCn2cnnc2)c2cnc(Nc3ccnc(N4CC[C@](C)(O)[C@H](F)C4)n3)cc12
< 15 nM

What value of IC50 has been reported for the following compound? CC(C)c1ccc(OC[C@@H]2CC(=O)N(C)C2)c2cnc(Nc3ccnc(N4CC[C@@H](O)[C@@](C)(F)C4)n3)cc12 (single isomer, unassigned)
< 15 nM

What value of IC50 has been reported for the following compound? CC(C)c1cnc(C(=O)N[C@@H](C)CF)c2cnc(Nc3ccnc(N4CC[C@@H](O)[C@@](C)(F)C4)n3)cc12
15 to 20 nM

---

In this section, each of the compounds is paired with its reported IC50.
test-system: EGFR (L858R T790M C797S) (Homo sapiens, UniProt P00533, C797S/L858R/T790M)
Construct: purchased SignalChem E10-122VG
run-description: Biochemical EGFR inhibition assay (Caliper mobility shift), EGFR LRTMCS mutant
measurement-parameters: LRTMCS (PH) IC50 (nM) @ 1 mM ATP (Num)
Experimental: Reactions proceeded until between 10% to 20% total peptides were phosphorylated at room temperature (25° C.) and were terminated with 35 mM 2,2′,2″,2′″-(ethane-1,2-diyldinitrilo)tetraacetic acid (EDTA). Product was detected using the Caliper mobility shift detection method where the phosphorylated peptide (product) and substrate were electrophoretically separated and measured. Percent activity was plotted against log concentration of compound and points to generate an apparent IC50.

Example entries begin here.
CO[C@H]1CCN(c2nccc(Nc3cc4c(C(C)C)ccc(OCC5CN(C(C)=O)C5)c4cn3)n2)C[C@@H]1O (single isomer, unassigned): 15 to 20 nM
CC(=O)N1CC(COc2ccc(C(C)C)c3cc(Nc4ccnc(N5CC[C@@H](O)[C@@](C)(F)C5)n4)ncc23)C1: < 15 nM
CC(C)c1cnc(C(=O)NC2CC(F)(F)C2)c2cnc(Nc3ccnc(N4CC[C@@H](O)[C@@](C)(F)C4)n3)cc12: < 15 nM
CC(=O)N1CC(C)(COc2ccc(C(C)C)c3cc(Nc4ccnc(N5CC[C@@H](O)[C@@](C)(F)C5)n4)ncc23)C1: 15 to 20 nM
CO[C@@H]1CCN(c2nccc(Nc3cc4c(C(C)C)ncc(OCCn5cnnc5)c4cn3)n2)C[C@@H]1F: 15 to 20 nM
CC(C)c1cnc(C(=O)N[C@@H]2CN(C)C[C@H]2F)c2cnc(Nc3ccnc(N4CC[C@@H](O)[C@@](C)(F)C4)n3)cc12 (single isomer, unassigned) [Example 90]: < 15 nM
CO[C@H]1C[C@@H](NC(=O)c2ncc(C(C)C)c3cc(Nc4ccnc(N5CC[C@@H](O)[C@@](C)(F)C5)n4)ncc23)C1: < 15 nM
CC(=O)N1CC([C@@H](C)Oc2ccc(C(C)C)c3cc(Nc4ccnc(N5CC[C@@H](O)[C@@](C)(F)C5)n4)ncc23)C1 (single isomer, unassigned): < 15 nM
Cc1nncn1CCOc1ccc(C(C)C)c2cc(Nc3ccnc(N4CC[C@](C)(O)[C@H](F)C4)n3)ncc12: < 15 nM
CC(C)c1ccc(OCCn2cncn2)c2cnc(Nc3ccnc(N4CCC(C)(O)CC4)n3)cc12: < 15 nM

What value of IC50 has been reported for the following compound? CC(C)c1ccc(OC[C@H]2CCC(=O)N2C)c2cnc(Nc3ccnc(N4CC[C@](C)(O)[C@H](F)C4)n3)cc12
15 to 20 nM
